FYI, the data here is from patent US8580556B2.

# Tested on: tetA promoter (PtetA)-lacZ reporter in E. coli KM3
# Assay type: cell-based
# run_conditions: Table 6, reverse repressor hits; chlorsulfuron, same plate assay format as Table 4
measured_attribute: relative β-galactosidase activity, inducer Cs
Please reply with the number alone, leaving off any unit.

Asked: Provide measured relative β-galactosidase activity, inducer Cs value, entry: L1-21: library L1 reverse repressor hit (SEQ ID NO: 1206-1213) (protein, rSuR L1-21) MGSRLDKSKVINSALELLNEVGIEGLTTRKLAQKLGVEQPTLYWHVKNKRALLDALAIEMLDRHATHFCPLEGESWQDFLRNNAKSFRCALLSHRDGAKVCLGTAGTEKQYETLENCLAFLCQQGFSLENALYARSAVVCFTLGCVLFDQEMQVAKEERETPTTDSMPPLLRQAAELLDHQGAEPAFLFGLELIICGLEKQLKCESGS
Given back: 0.89
